- target_entity: T1, H4-15 histone H4 tail peptide
- T1 chain: GRGKGGKGLGKGGAK
property_name: Km(µM) for H4-15
Give bare numbers, in µM.

Worked set:
[
  {
    "protein": "semi-synthetic p300 HAT domain R1410A (protein) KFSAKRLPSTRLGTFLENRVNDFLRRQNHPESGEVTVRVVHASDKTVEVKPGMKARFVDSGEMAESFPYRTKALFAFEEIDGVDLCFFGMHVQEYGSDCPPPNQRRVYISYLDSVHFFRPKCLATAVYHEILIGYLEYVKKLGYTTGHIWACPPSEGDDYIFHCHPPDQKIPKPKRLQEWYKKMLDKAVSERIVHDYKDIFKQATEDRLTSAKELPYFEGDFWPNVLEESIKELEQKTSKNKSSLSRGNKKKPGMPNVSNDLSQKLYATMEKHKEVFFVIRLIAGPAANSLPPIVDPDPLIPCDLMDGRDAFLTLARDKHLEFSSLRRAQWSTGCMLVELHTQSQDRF",
    "Km(µM) for H4-15": 190
  },
  {
    "protein": "semi-synthetic p300 HAT domain D1625R (protein) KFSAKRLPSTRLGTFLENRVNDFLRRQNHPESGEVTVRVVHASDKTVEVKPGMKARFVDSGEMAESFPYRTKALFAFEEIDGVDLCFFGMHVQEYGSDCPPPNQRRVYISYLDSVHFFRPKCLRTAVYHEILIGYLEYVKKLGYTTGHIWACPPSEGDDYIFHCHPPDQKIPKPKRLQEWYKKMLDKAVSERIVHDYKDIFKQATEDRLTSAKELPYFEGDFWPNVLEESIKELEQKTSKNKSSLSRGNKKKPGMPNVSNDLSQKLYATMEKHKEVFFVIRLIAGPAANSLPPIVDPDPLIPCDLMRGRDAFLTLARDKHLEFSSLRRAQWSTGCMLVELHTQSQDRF",
    "Km(µM) for H4-15": 640
  }
]

Request: # get_value(readout='Km(µM) for H4-15', item= semi-synthetic p300 HAT domain R1410K (protein) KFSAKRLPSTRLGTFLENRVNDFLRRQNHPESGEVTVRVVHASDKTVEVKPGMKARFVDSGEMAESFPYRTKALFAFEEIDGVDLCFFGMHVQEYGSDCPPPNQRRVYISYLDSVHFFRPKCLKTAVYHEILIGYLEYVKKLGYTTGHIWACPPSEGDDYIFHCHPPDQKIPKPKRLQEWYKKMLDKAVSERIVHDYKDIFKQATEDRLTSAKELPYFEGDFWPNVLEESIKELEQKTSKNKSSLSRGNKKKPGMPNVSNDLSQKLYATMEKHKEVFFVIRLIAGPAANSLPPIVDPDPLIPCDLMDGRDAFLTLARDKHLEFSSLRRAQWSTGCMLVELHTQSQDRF )
Result: 156
